// data source = paper PMC6727982

# logD per entry
# protocol_notes: LogD by shake-flask method with 18F-labeled tracers
# Assay type: physicochemical
# assay_context: pH 7.4

- molecule: "COc1cnc(OCc2cn(-c3ccc(F)c(C)c3)nn2)nc1"
  logD: 2.89
- molecule: "COc1cnc(OCc2cn(-c3ccc(F)c(Br)c3)nn2)nc1"
  logD: 3.14
- molecule: "COc1cnc(OCc2cn(-c3ccc([18F])c(C)c3)nn2)nc1 [[^18F]13]"
  logD: 2.89

---

Readings of pIC50 for the listed compounds
# measured_target: human GluN1/GluN2B receptors (Homo sapiens, UniProt Q05586+Q13224)
# Sequence (Q13224 27-1484, other chains not shown): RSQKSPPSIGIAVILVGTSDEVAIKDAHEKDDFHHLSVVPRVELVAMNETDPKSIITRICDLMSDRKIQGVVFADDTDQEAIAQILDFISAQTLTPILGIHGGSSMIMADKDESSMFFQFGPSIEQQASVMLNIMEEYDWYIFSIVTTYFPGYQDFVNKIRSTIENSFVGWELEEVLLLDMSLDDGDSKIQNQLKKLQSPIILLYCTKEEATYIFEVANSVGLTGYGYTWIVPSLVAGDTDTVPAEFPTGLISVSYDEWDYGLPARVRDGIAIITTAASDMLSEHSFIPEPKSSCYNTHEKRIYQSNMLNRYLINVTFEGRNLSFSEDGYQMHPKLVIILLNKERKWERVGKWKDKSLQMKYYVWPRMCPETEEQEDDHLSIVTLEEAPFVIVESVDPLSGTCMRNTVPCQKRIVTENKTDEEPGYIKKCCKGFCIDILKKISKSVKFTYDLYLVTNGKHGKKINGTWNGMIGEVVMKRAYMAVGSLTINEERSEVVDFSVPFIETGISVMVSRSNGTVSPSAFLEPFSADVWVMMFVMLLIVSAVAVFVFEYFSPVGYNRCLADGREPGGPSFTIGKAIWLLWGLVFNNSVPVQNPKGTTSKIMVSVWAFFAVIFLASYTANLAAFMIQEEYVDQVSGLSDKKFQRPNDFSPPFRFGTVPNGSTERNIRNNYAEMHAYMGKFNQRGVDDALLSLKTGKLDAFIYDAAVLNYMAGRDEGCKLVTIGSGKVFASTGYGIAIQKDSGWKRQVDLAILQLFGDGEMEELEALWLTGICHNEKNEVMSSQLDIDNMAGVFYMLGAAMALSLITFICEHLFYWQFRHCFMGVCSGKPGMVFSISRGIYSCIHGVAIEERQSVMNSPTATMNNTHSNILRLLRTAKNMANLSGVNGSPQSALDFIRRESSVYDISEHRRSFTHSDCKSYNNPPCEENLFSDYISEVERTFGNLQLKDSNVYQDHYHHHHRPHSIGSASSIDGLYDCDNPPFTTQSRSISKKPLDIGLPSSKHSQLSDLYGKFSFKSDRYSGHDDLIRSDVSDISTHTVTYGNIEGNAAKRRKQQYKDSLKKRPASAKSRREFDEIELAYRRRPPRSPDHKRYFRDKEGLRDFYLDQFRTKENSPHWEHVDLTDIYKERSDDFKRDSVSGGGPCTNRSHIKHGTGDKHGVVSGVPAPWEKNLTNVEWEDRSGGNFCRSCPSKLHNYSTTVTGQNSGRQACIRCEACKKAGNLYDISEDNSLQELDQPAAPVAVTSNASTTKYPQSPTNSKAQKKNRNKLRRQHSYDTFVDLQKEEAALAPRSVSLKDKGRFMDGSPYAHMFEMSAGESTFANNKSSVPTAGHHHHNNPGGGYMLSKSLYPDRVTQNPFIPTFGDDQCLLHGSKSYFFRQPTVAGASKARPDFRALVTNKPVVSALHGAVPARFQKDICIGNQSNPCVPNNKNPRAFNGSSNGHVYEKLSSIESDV
# Type: cell-based
# assay_context: pIC50, mean (95% CI), 100 μM glutamate/glycine, n = 6−12
pIC50: −log10 of the molar value.
observable: pIC50

- compound: "COc1cnc(OCc2cn(-c3ccc(Br)c(F)c3)nn2)nc1 [Compound 12]"
  experimental_result: 6.55
- compound: "COc1cnc(OCc2cn(-c3ccc(C)c(F)c3)nn2)nc1 [Compound 14]"
  experimental_result: 7.12
- compound: "COc1cnc(OCc2cn(-c3ccc(F)c(Br)c3)nn2)nc1 [Compound 11]"
  experimental_result: 7.72

---

Catalogue of pIC50 readings, one per entry.
# measured_target: human GluN1/GluN2B receptors (Homo sapiens, UniProt Q05586+Q13224)
# Type: cell-based
# assay_context: IC50, mean, 100 μM glutamate/glycine coapplied with increasing concentrations, n = 6−12
pIC50: −log10 of the molar value.

- smiles_structure: "COc1cnc(OCc2cn(-c3ccc(Br)c(F)c3)nn2)nc1"
  measured_target: "human GluN1/GluN2B receptors (Homo sapiens, UniProt Q05586+Q13224)"
  pIC50: 6.47
- smiles_structure: "COc1cnc(OCc2cn(-c3ccc(F)c(Br)c3)nn2)nc1"
  measured_target: "human GluN1/GluN2B receptors (Homo sapiens, UniProt Q05586+Q13224)"
  pIC50: 7.72
- smiles_structure: "COc1cnc(OCc2cn(-c3ccc(C)c(F)c3)nn2)nc1"
  measured_target: "human GluN1/GluN2B receptors (Homo sapiens, UniProt Q05586+Q13224)"
  pIC50: 7.05
